# assay.method.text: Cytotoxicity, MTT assay
# Assay type: cell-based, murine
# measurement.conditions: mouse, Neuro-2a neuroblastoma cells, read-out: Cytotoxic activity EC50
We begin with a simple list: items and their reported EC50 at 24 h.
quantity.kind: EC50 at 24 h

{"compound": "CC(C)=CCC/C(C)=C/Cc1c(O)c(O)cc2c1oc1c3ccc(O)cc3oc(=O)c21", "recorded.result": "> 100 µM"}
{"compound": "CC(C)=CCC/C(C)=C/Cc1c(O)c(C(=O)c2c(-c3ccc(O)cc3O)oc3c(C/C=C(\\C)CCC=C(C)C)c(O)c(O)cc23)cc2c1OC1c3cc(CC=C(C)C)c(O)cc3OCC21 (centres unmarked)", "recorded.result": "> 100 µM"}
{"compound": "CC(C)=CCC/C(C)=C/Cc1c(O)c(O)cc(C(=O)C(=O)c2cc(CC=C(C)C)c(O)cc2O)c1O", "recorded.result": "87 µM"}
{"compound": "CC(C)=CCC[C@@]1(C)C=Cc2c(c(O)cc3c2oc2c4ccc(O)cc4oc(=O)c32)O1", "recorded.result": "44 µM"}
{"compound": "CC(C)=CCC/C(C)=C/Cc1c(O)c(O)cc(C(=O)C(=O)c2ccc(O)cc2O)c1O", "recorded.result": "100 µM"}

====

# assay.method.text: Cytotoxicity, MTT assay
# Type: cell-based, murine
# measurement.conditions: mouse, Neuro-2a neuroblastoma cells, read-out: Cytotoxic activity EC50
quantity.kind: EC50 at 24 h (µM)

{"molecule": "CC(C)=CCC/C(C)=C/Cc1c(O)c(O)cc2c3c(oc12)-c1ccc(O)cc1OC3 [Compound 4, lespedezol A2]", "recorded.result": 76}
{"molecule": "CC(C)=CCC[C@@]1(C)C=Cc2c(c(O)cc3c2O[C@H]2c4ccc(O)cc4OC[C@@H]32)O1 [Compound 2]", "recorded.result": 75}
{"molecule": "CC(C)=CCC[C@@]1(C)C=Cc2c(c(O)cc3c4c(oc23)-c2ccc(O)cc2OC4)O1 [Compound 9, lespedezol A3]", "recorded.result": 75}
{"molecule": "CC(C)=CCC[C@]1(C)C=Cc2c(c(O)cc3c2O[C@H]2c4ccc(O)cc4OC[C@@H]32)O1 [Compound 3, 6aR,11aR,3′R-6a,11a-dihydrolespedezol A3]", "recorded.result": 44}
{"molecule": "CC(C)=CCC/C(C)=C/Cc1c(O)c(O)cc2c1O[C@H]1c3cc(CC=C(C)C)c(O)cc3OC[C@@H]21 [Compound 6]", "recorded.result": 40.6}
{"molecule": "CC(C)=CCC/C(C)=C/Cc1c(O)c(O)cc2c1O[C@H]1c3ccc(O)cc3OC[C@@H]21 [Compound 1, (6aR,11aR)-6a,11a-dihydrolespedezol A2]", "recorded.result": 72}
